- assay: liver-stage malaria parasite growth inhibition, primary screen, cell-based, HepG2, luciferase luminescence, HepG2 viability (AID 624349);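 note: 100% = mean of DMSO negative control wells on the same plate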
- experimental-context: P. berghei liver stage in HepG2, luciferase luminescence, concentration not given here; hits give low values
Numbered stars: 1 amine (or outer) side, 2 acyl side, 3 side chain; on linkers, the order of the positions; unused ones are H or OH. Bridge positions count the residues as written; N and C are the ends. Square brackets hold non-standard residues; d marks the D form. Peptide text beside a SMILES is read from it. I, II: the chains in the order shown. Actinocin(9to1) = Cc1c2oc3c(C)ccc(C(=O)[*:1])c3nc-2c(C(=O)[*:2])c(N)c1=O; NMeV = CN[CH](C(=O)O)C(C)C; Sar = CNCC(=O)O
Criterion: parasite load remaining strictly under 50%. Met: 1. Not met: 0.

{"compound": "COCCCCC(=NOCCN)c1ccc(C(F)(F)F)cc1", "class-label": 1}
{"compound": "O=c1[nH]c(=O)n(C2CC(O)C(CO)O2)cc1F (stereo not drawn)", "class-label": 0}
{"compound": "CNC(=O)Oc1ccc2c(c1)[C@]1(C)CCN(C)C1N2C (stereo partly drawn)", "class-label": 0}
{"compound": "CO[C@H](C(=O)[C@@H](O)[C@@H](C)O)[C@@H]1Cc2cc3cc(O[C@H]4C[C@@H](O[C@H]5C[C@@H](O)[C@H](O)[C@@H](C)O5)[C@@H](O)[C@@H](C)O4)c(C)c(O)c3c(O)c2C(=O)[C@H]1O[C@H]1C[C@@H](O[C@H]2C[C@@H](O[C@H]3C[C@](C)(O)[C@H](O)[C@@H](C)O3)[C@H](O)[C@@H](C)O2)[C@H](O)[C@@H](C)O1", "class-label": 1}
{"compound": "CC(N)(Cc1ccc(O)c(O)c1)C(=O)O (stereo not drawn)", "class-label": 0}
{"compound": "C=CC[C@@H]1C=C(C)C[C@H](C)C[C@H](OC)[C@H]2O[C@@](O)(C(=O)C(=O)N3CCCC[C@H]3C(=O)O[C@H](/C(C)=C/[C@@H]3CC[C@@H](O)[C@H](OC)C3)[C@H](C)[C@@H](O)CC1=O)[C@H](C)C[C@@H]2OC", "class-label": 0}
{"compound": "CC(C)N1CCN(c2ccc(OC[C@H]3CO[C@](Cn4cncn4)(c4ccc(Cl)cc4Cl)O3)cc2)CC1", "class-label": 1}
{"compound": "O=C(OC1C[C@@H]2CC3C[C@H](C1)N2CC3=O)c1c[nH]c2ccccc12 (stereo partly drawn)", "class-label": 0}
{"compound": "O=C1Cc2c([nH]c3ccc(Br)cc23)-c2ccccc2N1", "class-label": 1}
{"compound": "CCCCCCCCCCCCCCCC(=O)O[C@@H]1[C@@H](O)[C@@H](O)C([C@H](NC(=O)[C@@H]2C[C@@H](CCC)CN2C)[C@H](C)Cl)O[C@@H]1SC (stereo partly drawn)", "class-label": 0}
{"compound": "C[C@@H](c1ncncc1F)[C@](O)(Cn1cncn1)c1ccc(F)cc1F", "class-label": 0}
{"compound": "CS(=O)c1ccc(-c2nc(-c3ccc(F)cc3)c(-c3ccncc3)[nH]2)cc1 (stereo not drawn)", "class-label": 1}
{"compound": "Nc1nc(Cl)nc2c1ncn2[C@H]1C[C@H](O)[C@@H](CO)O1", "class-label": 1}
{"compound": "C#C[C@]1(O)CCC2C3CCc4cc(OC)ccc4C3CC[C@@]21C (stereo partly drawn)", "class-label": 1}
{"compound": "Oc1ccc(-c2nc(-c3ccc(F)cc3)c(-c3ccncc3)[nH]2)cc1", "class-label": 1}
{"compound": "CSc1nc2cc(Oc3cccc(Cl)c3Cl)c(Cl)cc2[nH]1", "class-label": 1}
{"compound": "O=c1ncc(F)c[nH]1", "class-label": 0}
{"compound": "NCC(O)c1ccc(O)c(O)c1 (stereo not drawn)", "class-label": 1}
{"compound": "COc1ccc(-c2cc(=O)c3c(O)cc(O[C@@H]4O[C@H](CO[C@H]5O[C@H](C)[C@@H](O)[C@H](O)[C@@H]5O)[C@@H](O)[C@H](O)[C@H]4O)cc3o2)cc1O", "class-label": 1}
{"compound": "Cc1cc(=O)oc2cc(NC(=O)C3CCC(=O)N3)ccc12 (stereo not drawn)", "class-label": 0}
{"compound": "CCN(CC)C(=O)[C@]1(c2ccccc2)C[C@@H]1CN", "class-label": 0}
{"compound": "C[C@]12C=CC(=O)C=C1CC[C@@H]1[C@@H]2[C@@H](O)C[C@@]2(C)[C@H]1CC[C@]2(O)C(=O)COC(=O)CCC(=O)O", "class-label": 0}
{"compound": "Oc1ccc2ccccc2c1SSc1c(O)ccc2ccccc12", "class-label": 1}
{"compound": "C[C@@H]1CC[C@@]2(OC1)OC1CC3C4CC=C5C[C@@H](O)CC[C@]5(C)C4CC[C@]3(C)C1[C@@H]2C (stereo partly drawn)", "class-label": 0}
{"compound": "C[C@@H]1O[C@@H](OC[C@H]2OC(Oc3c(-c4ccc(OCCO)c(OCCO)c4)oc4cc(OCCO)cc(O)c4c3=O)[C@H](O)[C@@H](O)[C@@H]2O)[C@H](O)[C@H](O)[C@H]1O (stereo partly drawn)", "class-label": 0}
{"compound": "Cc1c2oc3c(C)ccc(C(=O)OC(C)C4NC(=O)C(C(C)C)N(C)C(=O)CN(C)C(=O)C5CCCN5C(=O)C(C(C)C)NC4=O)c3nc-2c(C(=O)OC(C)C2NC(=O)C(C(C)C)N(C)C(=O)CN(C)C(=O)C3CCCN3C(=O)C(C(C)C)NC2=O)c(N)c1=O (stereo not drawn) (I: cyclo([Sar][NMeV]TVP) / II: cyclo([Sar][NMeV]TVP); linker I:3-II:3 via Actinocin(9to1); configuration not given here)", "class-label": 1}
{"compound": "Nc1ccc2cn[nH]c2c1", "class-label": 0}
{"compound": "CN(C)S(=O)(=O)c1ccc2c(c1)/C(=C\\CCN1CCNCC1)c1ccccc1S2", "class-label": 1}
{"compound": "CC(=O)CCCCn1cnc2c1c(=O)n(C)c(=O)n2C", "class-label": 0}
{"compound": "Nc1nccc(-c2ccc3noc(-c4ccc(Cl)cc4)c3c2)n1", "class-label": 1}
{"compound": "Nc1nc(N)c2nc(CNc3ccc(C(=O)NC(CCC(=O)O)C(=O)O)cc3)cnc2n1 (stereo not drawn)", "class-label": 0}
{"compound": "O=[N+]([O-])O[C@@H]1CO[C@H]2[C@@H]1OC[C@@H]2O", "class-label": 0}
{"compound": "CCOC(=O)[C@@H](CCc1ccccc1)N[C@@H](C)C(=O)N1CCC[C@H]1C(=O)O", "class-label": 1}

Values were extracted from PubChem BioAssay.
